pIC50: −log10 of the molar value. Counter-ions that a name gives are not always drawn.
Human Tyk2 kinase domain (Homo sapiens, UniProt P29597): reported pIC50 for various compounds.

compound | pIC50
CCCS(=O)(=O)N1CC(CC#N)(n2cc(-c3nc(-c4cnn(C)c4)cc4nccn34)cn2)C1 | > 8.00
Cc1ccc(-c2cc3nccn3c(-c3cnn(C(CC#N)C4CC4)c3)n2)cn1 (centres unmarked) | 7.00 to 8.00
Cn1cc(-c2cc3nccn3c(-c3cnn(C4(CC#N)CN(C(CF)CF)C4)c3)n2)cn1 | 7.00 to 8.00
N#CCC1(n2cc(-c3nc(-c4ccc(C(F)(F)F)cc4)cc4nccn34)cn2)CN(S(=O)(=O)C(F)(F)F)C1 | > 8.00
Cn1cc(-c2cc3nccn3c(-c3cnn(C4(CC#N)CN(C5CC5)C4)c3)n2)cn1 | 7.00 to 8.00
Cn1cc(-c2cc3nccn3c(-c3cnn(C4(CC#N)CNC4)c3)n2)cn1 [Example 62, hydrochloride] | 6.00 to 7.00
CN1CCc2ccc(-c3cc4nccn4c(-c4cnn(C(CC#N)C5CC5)c4)n3)cc2C1 (centres unmarked) | 7.00 to 8.00

Continue with the compound presented below.
Give the measured pIC50 of N#CCC(C1CC1)n1cc(-c2nc(-c3ccc(N4CCOCC4)cc3)cc3nccn23)cn1 (centres unmarked) .
> 8.00

###

Target: UniProt:P52333
Sequence (P52333 1-1124): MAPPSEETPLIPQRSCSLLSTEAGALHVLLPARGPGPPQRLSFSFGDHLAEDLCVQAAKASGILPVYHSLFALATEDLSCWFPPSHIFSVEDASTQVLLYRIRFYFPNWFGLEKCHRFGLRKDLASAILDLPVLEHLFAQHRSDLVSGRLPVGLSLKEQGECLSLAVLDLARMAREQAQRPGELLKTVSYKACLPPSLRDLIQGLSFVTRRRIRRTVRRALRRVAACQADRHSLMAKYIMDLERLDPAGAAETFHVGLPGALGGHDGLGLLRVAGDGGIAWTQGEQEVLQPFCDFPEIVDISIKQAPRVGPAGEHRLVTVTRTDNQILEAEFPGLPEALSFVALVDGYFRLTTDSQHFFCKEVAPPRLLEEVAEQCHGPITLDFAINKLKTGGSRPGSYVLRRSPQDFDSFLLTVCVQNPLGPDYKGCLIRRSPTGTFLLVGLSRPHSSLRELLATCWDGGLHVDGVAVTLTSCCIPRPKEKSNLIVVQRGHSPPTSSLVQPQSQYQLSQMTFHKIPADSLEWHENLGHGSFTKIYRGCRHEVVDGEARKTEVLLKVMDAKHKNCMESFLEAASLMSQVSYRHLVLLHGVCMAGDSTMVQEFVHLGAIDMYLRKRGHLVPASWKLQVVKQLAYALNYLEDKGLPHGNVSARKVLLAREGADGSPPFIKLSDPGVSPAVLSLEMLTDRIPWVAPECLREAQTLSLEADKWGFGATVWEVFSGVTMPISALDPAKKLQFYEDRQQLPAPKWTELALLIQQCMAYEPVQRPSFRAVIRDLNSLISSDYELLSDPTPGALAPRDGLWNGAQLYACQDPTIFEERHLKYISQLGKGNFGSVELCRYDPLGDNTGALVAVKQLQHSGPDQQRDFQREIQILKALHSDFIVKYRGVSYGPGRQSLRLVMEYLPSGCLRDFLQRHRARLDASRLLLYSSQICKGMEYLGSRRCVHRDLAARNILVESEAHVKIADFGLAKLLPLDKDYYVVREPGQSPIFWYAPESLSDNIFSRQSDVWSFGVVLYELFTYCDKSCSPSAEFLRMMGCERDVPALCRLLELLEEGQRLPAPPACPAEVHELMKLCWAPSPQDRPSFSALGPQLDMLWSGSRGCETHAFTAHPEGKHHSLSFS
Listing: IC50 of selected molecules

molecule | IC50
Cn1cc(-c2cc3nccn3c(-c3ccn(C4(CC#N)CN(S(=O)(=O)C5CC5)C4)c3)n2)cn1 [Example 136] | > 1 µM
N#CCC(C1CC1)n1cc(-c2nc(-c3ccc4c(c3)CNCC4)cc3nccn23)cn1 (stereo not shown) [Example 54] | 0.1 to 1 µM

Quick check: IC50 on UniProt:P52333, item N#CCC1(n2cc(-c3nc(-c4cnn(C5COC5)c4)cc4nccn34)cn2)CC2(CCC2)C1 [Example 162] ?
0.1 to 1 µM

Request: Cn1cc(-c2cc3nccn3c(-c3cnn(C(CC#N)c4cccc(Cl)c4)c3)n2)cn1 (stereo not shown) [Example 13]
0.1 to 1 µM

###

Human Tyk2 kinase domain (Homo sapiens, UniProt P29597): reported IC50 for various compounds.

// below: answered compounds
compound | value_measured
CN1CCN(c2ccc(-c3cc4nccn4c(-c4cnn(C(CC#N)C5CC5)c4)n3)cn2)CC1 (stereo not shown) | < 10 nM
Cn1cc(-c2cc3nccn3c(-c3cnn(C4(CC#N)CN(S(=O)(=O)C5CCCCC5)C4)c3)n2)cn1 | 10 to 100 nM
COc1ncc(-c2cc3nccn3c(-c3cnn(C4(CC#N)CN(S(=O)(=O)C5CC5)C4)c3)n2)cn1 | 10 to 100 nM

Quick check: IC50 on Human Tyk2 kinase domain (Homo sapiens, UniProt P29597), item Cn1cc(-c2cc3nccn3c(-c3cnn(C4(CC#N)CN(S(=O)(=O)c5ccccc5)C4)c3)n2)cn1 ?
10 to 100 nM

###

Target: Human Tyk2 kinase domain (Homo sapiens, UniProt P29597)
Sequence (P29597 886-1187): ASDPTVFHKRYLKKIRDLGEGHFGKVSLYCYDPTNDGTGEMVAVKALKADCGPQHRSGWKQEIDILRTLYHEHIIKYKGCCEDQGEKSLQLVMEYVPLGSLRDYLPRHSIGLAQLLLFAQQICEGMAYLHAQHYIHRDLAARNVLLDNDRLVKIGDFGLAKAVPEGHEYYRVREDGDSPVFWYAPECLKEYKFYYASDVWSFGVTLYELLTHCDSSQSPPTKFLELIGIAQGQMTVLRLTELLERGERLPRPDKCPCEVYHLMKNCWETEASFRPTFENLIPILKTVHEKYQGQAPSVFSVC
Listing: IC50 of selected compounds

// below: answered compounds
compound | IC50
Cn1cc(-c2cc3nccn3c(-c3cnn(C(CC#N)CC(C)(C)C)c3)n2)cn1 (stereo not shown) | 10 to 100 nM
CC(C)(CC#N)n1cc(-c2nc(-c3ccc(N4CCOCC4)cc3)cc3nccn23)cn1 | 10 to 100 nM
Cn1cc(-c2cc3nccn3c(-c3cnn(C(CC#N)c4ccccc4Cl)c3)n2)cn1 (stereo not shown) | 10 to 100 nM

Give the measured IC50 of Cn1cc(-c2ccc(-c3cc4nccn4c(-c4cnn(C(CC#N)C5CC5)c4)n3)cc2)cn1 (stereo not shown) .
< 10 nM

###

Target: JAK3 (Homo sapiens, UniProt P52333)
Sequence (P52333 1-1124): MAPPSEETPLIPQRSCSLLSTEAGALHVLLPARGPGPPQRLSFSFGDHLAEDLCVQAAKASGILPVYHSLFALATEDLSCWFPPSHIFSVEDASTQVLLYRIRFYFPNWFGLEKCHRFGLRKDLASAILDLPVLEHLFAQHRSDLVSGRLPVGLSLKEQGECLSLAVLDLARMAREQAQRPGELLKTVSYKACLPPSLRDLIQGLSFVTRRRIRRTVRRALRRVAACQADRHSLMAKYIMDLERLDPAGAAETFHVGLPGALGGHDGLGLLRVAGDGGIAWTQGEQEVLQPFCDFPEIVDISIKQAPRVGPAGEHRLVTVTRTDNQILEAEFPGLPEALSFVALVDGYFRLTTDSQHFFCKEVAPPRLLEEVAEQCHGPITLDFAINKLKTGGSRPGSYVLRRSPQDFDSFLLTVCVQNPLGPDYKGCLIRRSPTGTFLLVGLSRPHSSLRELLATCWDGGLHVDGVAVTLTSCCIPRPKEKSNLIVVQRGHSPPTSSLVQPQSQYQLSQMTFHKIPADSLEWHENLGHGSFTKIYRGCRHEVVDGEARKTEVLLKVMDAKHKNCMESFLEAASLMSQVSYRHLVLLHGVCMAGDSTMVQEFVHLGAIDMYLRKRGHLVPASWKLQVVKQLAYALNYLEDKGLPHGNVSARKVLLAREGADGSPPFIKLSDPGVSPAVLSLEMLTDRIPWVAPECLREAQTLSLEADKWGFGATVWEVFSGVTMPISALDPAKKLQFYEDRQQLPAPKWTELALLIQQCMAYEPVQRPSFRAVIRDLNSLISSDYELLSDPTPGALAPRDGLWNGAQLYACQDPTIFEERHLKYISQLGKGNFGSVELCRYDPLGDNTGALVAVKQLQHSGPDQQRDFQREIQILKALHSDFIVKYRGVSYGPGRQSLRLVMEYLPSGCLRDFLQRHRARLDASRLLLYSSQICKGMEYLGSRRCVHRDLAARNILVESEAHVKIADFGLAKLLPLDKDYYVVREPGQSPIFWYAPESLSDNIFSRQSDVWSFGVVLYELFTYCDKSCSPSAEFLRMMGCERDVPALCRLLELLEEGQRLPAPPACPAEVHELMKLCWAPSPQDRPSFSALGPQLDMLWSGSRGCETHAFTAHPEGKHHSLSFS
pIC50: −log10 of the molar value. Where a name gives a salt, the structure may show the parent alone.
Listing: pIC50 of selected molecules

molecule | study_target | value_measured
Cn1cc(-c2cc3nccn3c(-c3cnn(C4(CC#N)CN(CC(F)(F)F)C4)c3)n2)cn1 | JAK3 (Homo sapiens, UniProt P52333) | < 6.00
Cn1cc(-c2cc3nccn3c(-c3cnn(C(CC#N)c4ccncc4)c3)n2)cn1 (stereo not drawn) | JAK3 (Homo sapiens, UniProt P52333) | < 6.00

Give the measured pIC50 of Cn1cc(-c2cc3nccn3c(-c3cnn(C4(CC#N)CNC4)c3)n2)cn1 [Example 62, hydrochloride] .
< 6.00
